B1: POU domain, class 4, transcription factor 1, residues 266 to 347; numbered along this chain, Q01851 (parent)
chain: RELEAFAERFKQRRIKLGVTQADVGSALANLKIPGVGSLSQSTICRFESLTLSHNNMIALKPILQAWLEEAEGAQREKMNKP

- Variants of: B1
- Experiment Notes: abundance fitness (aPCA) (normalised: wild type 0, dead -1); higher = more abundant; growth selection in yeast, the domain comes from the species named
- Measurement Conditions: Homo sapiens
abundance fitness for assorted variants

Some variants with known abundance fitness results, for comparison:
{"columns": ["Alteration", "abundance fitness"],
 "data": [
  ["I33S", -0.23],
  ["M57R", -0.775],
  ["K61A", -0.074],
  ["A7N", -0.582],
  ["R9I", -0.004],
  ["V36S", -0.096]
]}

Inquiry: Which measured abundance fitness value corresponds to R76P ?
Reply text: -0.002

Inquiry: Again, but for L60A
Reply text: -0.344

Inquiry: Again, but for K61R
Reply text: -0.051

Inquiry: Again, but for R9V
Reply text: -0.047
